- System: HEK293T soluble proteomes
- Test Description: LC-MS chemical proteomics of probe-modified sites in cell proteomes
- Format: binding, human
- Run Conditions: LC-MS chemical proteomics, FIG. 4A
Measured Property: tyrosine specificity, Y/K ratio of modified sites

compound=C#CCNC(=O)c1ccc(S(=O)(=O)n2cncn2)cc1 endpoint_value=2.8
compound=C#CCNC(=O)c1ccc(S(=O)(=O)n2nccn2)cc1 endpoint_value=2.5
compound="C#CCNC(=O)c1ccc(S(=O)(=O)F)cc1 [HHS-SF-1, reference compound]" endpoint_value=2.3
compound=C#CCNC(=O)c1ccc(S(=O)(=O)n2cnc(-c3ccccc3)n2)cc1 endpoint_value=3.5
compound=C#CCNC(=O)c1ccc(S(=O)(=O)n2cnc(-c3ccc(OC)cc3)n2)cc1 endpoint_value=~5

These entries and their values trace back to patent US12366579B2.
